target: MDR1 (P-gp) (Homo sapiens (Human), UniProt P08183); test: MDR1 transfected LLC-PK1 permeability/efflux, Assay 6; settings: pig, LLC-PK1, Assay 6 Pe Ratio, efflux ratio Papp(B-A)/Papp(A-B), MDR1 transfected LLC-PK1
Sequence (P08183 whole entry): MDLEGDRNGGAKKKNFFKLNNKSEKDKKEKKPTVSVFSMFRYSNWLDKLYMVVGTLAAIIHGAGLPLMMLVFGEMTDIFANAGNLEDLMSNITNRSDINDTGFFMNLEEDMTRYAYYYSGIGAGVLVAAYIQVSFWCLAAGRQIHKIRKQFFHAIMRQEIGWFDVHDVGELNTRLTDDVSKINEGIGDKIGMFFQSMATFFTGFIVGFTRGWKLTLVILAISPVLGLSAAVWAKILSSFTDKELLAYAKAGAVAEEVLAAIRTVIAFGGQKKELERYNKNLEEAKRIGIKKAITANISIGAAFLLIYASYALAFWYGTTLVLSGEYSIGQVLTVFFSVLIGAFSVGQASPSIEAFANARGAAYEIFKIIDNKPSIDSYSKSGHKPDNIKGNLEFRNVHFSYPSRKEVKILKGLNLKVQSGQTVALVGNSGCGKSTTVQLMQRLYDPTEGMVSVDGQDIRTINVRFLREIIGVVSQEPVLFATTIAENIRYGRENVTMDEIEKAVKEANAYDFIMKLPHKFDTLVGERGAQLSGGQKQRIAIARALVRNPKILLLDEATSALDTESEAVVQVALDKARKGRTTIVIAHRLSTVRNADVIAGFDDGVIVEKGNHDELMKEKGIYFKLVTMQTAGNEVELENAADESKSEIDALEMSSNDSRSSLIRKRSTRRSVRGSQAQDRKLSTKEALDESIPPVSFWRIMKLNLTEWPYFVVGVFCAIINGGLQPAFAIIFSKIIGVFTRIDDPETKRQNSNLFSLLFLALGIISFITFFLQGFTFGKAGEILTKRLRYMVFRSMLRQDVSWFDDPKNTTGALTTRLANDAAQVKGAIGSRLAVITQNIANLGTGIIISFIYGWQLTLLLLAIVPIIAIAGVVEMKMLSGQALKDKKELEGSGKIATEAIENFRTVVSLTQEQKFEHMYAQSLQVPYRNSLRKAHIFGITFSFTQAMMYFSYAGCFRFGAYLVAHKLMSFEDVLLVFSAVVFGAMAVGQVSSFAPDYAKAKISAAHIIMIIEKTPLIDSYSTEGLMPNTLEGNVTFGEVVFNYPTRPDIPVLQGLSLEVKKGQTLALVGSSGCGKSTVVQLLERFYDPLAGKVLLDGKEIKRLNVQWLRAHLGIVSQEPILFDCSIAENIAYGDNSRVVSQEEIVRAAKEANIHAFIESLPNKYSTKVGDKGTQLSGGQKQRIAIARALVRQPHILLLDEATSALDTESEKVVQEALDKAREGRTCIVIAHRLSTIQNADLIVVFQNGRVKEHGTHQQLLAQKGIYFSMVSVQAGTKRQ
Decide by efflux ratio at 2 h, 1 μM: equal to or exceeding 3 means t, less means f.

# compound, answerLabel
rows = [
    ("Cc1cc(Nc2ncnc3cnc(NC45CC(C4)C5)nc23)ccc1Oc1ccc2c(c1)ncn2C [Example 18]", "f"),
    ("Cc1cc(Nc2ncnc3cnc(N(C)CC4(O)CC4)nc23)ccc1Oc1ccc2c(c1)ncn2C [Example 166]", "t"),
]

Turning now to a further compound:
API: above_or_equal(metric=efflux ratio at 2 h, 1 μM, cutoff=3) for item Cc1cc(Nc2ncnc3cnc(N4CCO[C@H]5C[C@H]54)nc23)ccc1Oc1ccc2c(c1)ncn2C (single isomer, unassigned) [Example 60a]
f
